Numbers sourced from patent US8637516B2.

assay method text: Rat PK (PO 10 mg/kg, IV 3 mg/Kg)
Format: in vivo
measurement setup: in vivo; Rat, PO 10 mg/kg, MC/Tween 80 suspension
Reported AUC by item:
observed property: AUC (µM·h)

• NC(=O)c1cnc2ccc(N3C[C@@H](F)C[C@@H]3c3cc(F)ccc3F)nn12 = 7.09
• CC(=O)Nc1cnc2ccc(N3CCC[C@@H]3c3cc(F)ccc3F)nn12 [reference compound] = 0.087

* * *

assay target: Ba/F3 cells transformed with human Tel-TrkA (Homo sapiens, UniProt P04629)
Construct: expressed in transfected cells; host or cells: Ba/F3 murine hematopoietic progenitor cells (luciferase expressing); the other entry of the earlier key: ETV6 (P41212, Transcription factor ETV6)
Sequence (P04629 510-796 limits assumed): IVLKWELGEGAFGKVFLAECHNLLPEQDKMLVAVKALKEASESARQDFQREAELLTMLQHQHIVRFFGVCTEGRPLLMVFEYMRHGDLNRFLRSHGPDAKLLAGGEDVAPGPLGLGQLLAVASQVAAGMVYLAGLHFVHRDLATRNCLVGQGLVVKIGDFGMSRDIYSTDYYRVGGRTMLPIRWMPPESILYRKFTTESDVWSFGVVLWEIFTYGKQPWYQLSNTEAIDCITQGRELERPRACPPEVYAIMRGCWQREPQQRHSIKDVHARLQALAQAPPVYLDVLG
assay method text: Proliferation of Ba/F3 cells transformed with human Tel-TrkA (Ba/F3 Tel-TrkA)
Assay type: cell-based
measurement setup: Table 1; 48 hours, Bright Glo luminescence; read-out: Ba/F3 Tel-TrkA
pIC50: −log10 of the molar value.
Below is a list of entries, each paired with its recorded pIC50 value.
observed property: pIC50

* NS(=O)(=O)CCNC(=O)c1cnc2ccc(N3C[C@@H](F)CC3c3cccc(F)c3)nn12 (some centres unmarked) [X-118] | 7.27
* CS(=O)(=O)N1CC(NC(=O)c2cnc3ccc(N4CCC[C@@H]4c4cccc(F)c4)nn23)C1 [X-68] | 7.42
* CNC(=O)c1cnc2ccc(N3CCC[C@@H]3c3cccc(F)c3)nn12 [X-43] | 7.34
* O=C(NCc1ccc(F)cc1)c1cnc2ccc(N3CCCC3c3cccc(F)c3)nn12 (centres unmarked) [X-24] | 6.63
* CCOC(=O)Nc1cnc2ccc(N3CCC[C@@H]3c3cccc(F)c3)nn12 [X-236] | 6.26
